Data credit: patent US20210095028A1

# Top (best-fit) per record follows
# Assay System: T1, cynomolgus TIGIT over-expressed on CHO-K1 cells (cynomolgus, UniProt A0A7N9I9V4 89-312)
# T1 construct: whole, on cells; also called CHO-K1/cynomolgus TIGIT cells
# T1 sequence (A0A7N9I9V4 entry or part of it): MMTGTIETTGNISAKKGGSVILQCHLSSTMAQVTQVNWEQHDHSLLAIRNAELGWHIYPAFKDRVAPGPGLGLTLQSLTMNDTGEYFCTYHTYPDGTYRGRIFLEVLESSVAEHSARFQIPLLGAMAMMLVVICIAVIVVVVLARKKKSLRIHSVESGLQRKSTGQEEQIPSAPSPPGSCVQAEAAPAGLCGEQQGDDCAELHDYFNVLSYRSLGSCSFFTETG
# Procedure Details: FACS, CHO-K1 cells over-expressing cynomolgus TIGIT
Respond using a number only.

100C4E7D11 chimeric (antibody, V domains shown, also called 100C4 Chimeric) VH: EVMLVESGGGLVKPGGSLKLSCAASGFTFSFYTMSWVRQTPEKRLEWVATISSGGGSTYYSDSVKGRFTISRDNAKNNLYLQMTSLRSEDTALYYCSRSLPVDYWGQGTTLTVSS VL: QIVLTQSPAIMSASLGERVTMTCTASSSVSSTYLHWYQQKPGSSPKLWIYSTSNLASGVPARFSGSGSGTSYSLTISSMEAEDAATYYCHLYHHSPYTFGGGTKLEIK = 23700

In the following, a different binder is considered.
Task: Endpoint output: Top (best-fit) of 64G1E9B4VH1_VL1.M1 (antibody, human IgG1, V domains shown, Humanized antibody, variable domains fused with the constant region of human IgG1; also called 64G1VH1_VL1.M1) VH: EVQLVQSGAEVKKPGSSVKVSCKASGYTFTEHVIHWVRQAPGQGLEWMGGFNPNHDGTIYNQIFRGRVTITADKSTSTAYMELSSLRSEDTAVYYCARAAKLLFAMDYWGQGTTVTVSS VL: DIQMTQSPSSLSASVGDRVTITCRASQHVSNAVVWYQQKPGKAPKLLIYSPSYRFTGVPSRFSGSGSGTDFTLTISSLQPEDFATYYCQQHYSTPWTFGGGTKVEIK . Value?
Output: 24700
